B1: Osa-1-4 twister ribozyme (parent)
chain: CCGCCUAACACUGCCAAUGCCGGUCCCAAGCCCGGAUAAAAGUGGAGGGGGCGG

variants of: B1; experiment: self-cleavage, relative activity (ratio to wild type); higher = more cleavage; co-transcriptional
MEASUREMENT KIND: self-cleavage
Lab note: jot the number down without any unit.

Sample answers from the record:
SEQUENCE RECORD: CCGCCUAACACAGCCAAUGCCGGUCCCAAGCCCGGAUAAAAGUGGAGGGGUCGG [G51U U12A]
RESULT NUMBER: 0.09
//
SEQUENCE RECORD: CCGCCUAACACUGCCAAUGCCGGUCCCAAGCACGGAUAAAAGAGGAGGGGGCGG [C32A U43A]
RESULT NUMBER: 0.07
//
SEQUENCE RECORD: CCGCCUAACACUGCCAAUGCCGGUCCCAAGCGCCGAUAAAAGUGGAGGGGGCGG [C32G G34C]
RESULT NUMBER: 0.06
//
SEQUENCE RECORD: CCGCCUAACACUGCCAAUGCCUGCCCCAAGCCCGGAUAAAAGUGGAGGGGGCGG [G22U U24C]
RESULT NUMBER: 0.06

CCGCCUAACACUGCCAAUGCCGGUCCCACGCCCGGAUAAAACUGGAGGGGGCGG [A29C G42C] has a reported self-cleavage of 0.02

CCGCCUAACACUGCCAAUGCCGGUCCCAAGCCCGGAUAAUAGUGGAAGGGGCGG [A40U G47A] has a reported self-cleavage of 0.09

CCGCCUAGCACUGCCAAUGCCGGUCCCAAGCCCGGGUAAAAGUGGAGGGGGCGG [A36G A8G] has a reported self-cleavage of 0.66

CCGCCUAACAGUGCCAAUGCCGGUCCCAAGCCCGGAUAAAAGUGGAGUGGGCGG [C11G G48U] has a reported self-cleavage of 0.03

CCGCCUAACACUGCCAAUGCCCGUCCCAAGCCCGGAUAUAAGUGGAGGGGGCGG [A39U G22C] has a reported self-cleavage of 0.06

CCGCCUAACACUGCCAAUGCCGGCCCCAAGCCCGGAUAAAAGUGGCGGGGGCGG [A46C U24C] has a reported self-cleavage of 0.04

CCGCCUAACACCGCCAAUGCUGGUCCCAAGCCCGGAUAAAAGUGGAGGGGGCGG [C21U U12C] has a reported self-cleavage of 0.33

CCGCCUAACACUGCCAAUGCCGGUCCCAAGCCCGAAUAAAAGUUGAGGGGGCGG [G35A G44U] has a reported self-cleavage of 0.71

CCGCCUAACACUGCCAAUGCCGGUCCCAAGCCCGGAUAAAAGUGGAGGGGCCAG [G51C G53A] has a reported self-cleavage of 0.07

CCGCCUAACACUGCCAAUGCCGGUCCCGAGCCCGGUUAAAAGUGGAGGGGGCGG [A28G A36U] has a reported self-cleavage of 0.36
